In this section, each of the molecules is paired with its reported GI50.
- System: T47D
- Experiment: NCI tumour cell line growth inhibition, 48 h
Calls of active or inactive are those of the source. No stated cut-off is given here; in the data, active = GI50 up to about 1.1 µM and inactive = higher.
Assay endpoint: GI50

[[record]]
smiles_structure = "O=C(O)/C=N\\N=c1[nH]c2ccccc2[nH]1"
test_system = "T47D"
assay_endpoint = "GI50"
result = "> 100 µM (inactive)"

[[record]]
smiles_structure = "Cc1nc2c(C)c3c([nH]c4ccc(Cl)cc43)c(C)c2c(O)c1C"
test_system = "T47D"
assay_endpoint = "GI50"
result = "4.66 µM (inactive)"

[[record]]
smiles_structure = "Cn1c2ccc(F)cc2c2ccc3c(c21)C(=O)C=CC3=O"
test_system = "T47D"
assay_endpoint = "GI50"
result = "2.77 µM (inactive)"


* * *

Quick reference for GI50 among some compounds
- Tested on: OVCAR-4
- Experiment: NCI tumour cell line growth inhibition, 48 h
Active and inactive are the calls of the source. No stated cut-off is given here; in the data, active = GI50 up to about 1.1 µM and inactive = higher.
Assay endpoint: GI50

[[record]]
compound = "O=C(CN1CCN(Cc2ccccc2)CC1)c1ccc2[nH]c(=O)oc2c1"
result = "> 100 µM (inactive)"

[[record]]
compound = "COc1cc(S(=O)(=O)Nc2ccc(-c3csc(N4C(=O)CSC4c4cccs4)n3)cc2)ccc1Cl (stereo not drawn)"
result = "18.4 µM (inactive)"

[[record]]
compound = "Cc1ccc2nc(-c3ccccc3)c(N=O)n2c1"
result = "26.2 µM (inactive)"


* * *

Each entry below carries its recorded GI50.
- System: NCI-H522
- Experiment: NCI tumour cell line growth inhibition, 48 h
Activity calls are given as the source filed them. No stated cut-off is given here; in the data, active = GI50 up to about 1.1 µM and inactive = higher.
Assay endpoint: GI50

[[record]]
molecule = "Cc1ccc2c3c(cnc2n1)C(=O)OCCN3C"
result = "> 100 µM (inactive)"

[[record]]
molecule = "COc1ccc(C2=Nn3c(nnc3-c3ccccc3)S/C2=C\\c2ccc(-c3ccc([N+](=O)[O-])cc3)o2)cc1"
result = "12.8 µM (inactive)"

[[record]]
molecule = "O=[N+]([O-])c1ccc(S[C@@H]2[C@H]3c4c(-c5ccccc5)[nH]c(-c5ccccc5)c4[C@@H]2C[C@H]3Cl)cc1"
result = "2.9 µM (inactive)"

[[record]]
molecule = "CN(C)CCCN1C(=S)N(CCCN(C)C)c2c3cc(O)ccc3nc3c([N+](=O)[O-])ccc1c23"
result = "1.32 µM (inactive)"

[[record]]
molecule = "O=C(O)CN1CCN2CCCCCN(CC1)CCN(CC(=O)O)CC2"
result = "53.3 µM (inactive)"

[[record]]
molecule = "CC(C)[Si](OCC1CC(C#N)OC(C)(C)O1)(C(C)C)C(C)C (stereo not given)"
result = "18.2 µM (inactive)"

[[record]]
molecule = "CS/C(Nc1ccccc1)=C1\\C(=O)N(c2ccccc2)N=C1C"
result = "35.1 µM (inactive)"

[[record]]
molecule = "CC(=O)N(CCc1ccccc1)C(C)(C#N)c1ccccc1 (stereo not given)"
result = "> 100 µM (inactive)"

[[record]]
molecule = "N#Cc1cnn2cc[nH]c12"
result = "> 100 µM (inactive)"

[[record]]
molecule = "CC12CCC(=O)[C@@]1(C)CCCC2=O (stereo not given in full)"
result = "> 100 µM (inactive)"


* * *

- Tested on: NCI-H23
- Experiment: NCI tumour cell line growth inhibition, 48 h
Counter-ions that a name gives are not always drawn. Active and inactive are the calls of the source. Rule as the data show it: active = GI50 up to about 1.1 µM and inactive = higher.
Known GI50 of a selection of compounds
Assay endpoint: GI50

[[record]]
compound = "CCOC(=O)C1NCCc2c1[nH]c1ccccc21 (stereo not given)"
result = "> 10 µM (inactive)"

[[record]]
compound = "CC1(C)C(=O)CCC(=O)C(C)(C)C2=CC=C(O2)C(C)(C)C(=O)CCC(=O)C(C)(C)C2=CC=C1O2"
result = "> 100 µM (inactive)"

[[record]]
compound = "CN(C)c1ncnc2c1Cc1ccccc1C(=O)N2C"
result = "> 100 µM (inactive)"

[[record]]
compound = "CC1(S)CC2C(CC1Sc1ccccc1)C2(C)C (stereo not given)"
result = "> 100 µM (inactive)"

[[record]]
compound = "CCCCCCCCCCCCCCCCc1c(O)nc(NN)nc1C(=O)OC"
result = "> 50 µM (inactive)"

[[record]]
compound = "COc1ccc(S(=O)(=O)Nc2ccccc2C(=O)O)cc1"
result = "> 100 µM (inactive)"

[[record]]
compound = "CCN(CC)CCNc1nc2ccc([N+](=O)[O-])cc2[n+]([O-])n1"
result = "18.3 µM (inactive)"

[[record]]
compound = "COC(=O)C1=C(O)C(C(=O)OC)[C@@]2(O)[C@@H](C(=O)OC)[C@H](C)C[C@@H]1[C@@H]2C(=O)OC (stereo not given in full)"
result = "37.5 µM (inactive)"

[[record]]
compound = "c1ccc2c(c1)[nH]c1c3ccccc3sc21"
result = "> 100 µM (inactive)"

[[record]]
compound = "CCCCCCCCNC(=S)N/C=C1\\C(=O)Oc2ccccc2C1=O"
result = "21.1 µM (inactive)"

[[record]]
compound = "O=C1c2c(c3c4ccccc4n4c3c3c2c2ccccc2n3C/C=C\\C4)C(=O)N1Cc1ccccc1"
result = "> 100 µM (inactive)"

[[record]]
compound = "CCCCc1oc2ccccc2c1C(=O)c1cc(I)c(OCCN(CC)CC)c(I)c1 [AMIODARONE HYDROCHLORIDE]"
result = "6.15 µM (inactive)"

[[record]]
compound = "O=C(N/N=C/C=C/c1ccc([N+](=O)[O-])o1)c1ccc(C(=O)N/N=C/C=C/c2ccc([N+](=O)[O-])o2)cc1"
result = "49.8 µM (inactive)"

[[record]]
compound = "O=[N+]([O-])c1ccc2occ3c2c1CCC3"
result = "> 100 µM (inactive)"

[[record]]
compound = "CC(=O)OCCOCn1c2ccccc2c2c3c(c4c5ccccc5n(COCCOC(C)=O)c4c21)C(=O)N(Cc1ccccc1)C3=O"
result = "> 100 µM (inactive)"


* * *

- System: NCI/ADR-RES
- Experiment: NCI tumour cell line growth inhibition, 48 h
Active and inactive are the calls of the source. Rule as the data show it: active = GI50 up to about 1.1 µM and inactive = higher.
Assay endpoint: GI50

[[record]]
compound = "O=C1Nc2ccccc2/C1=C1/Nc2ccccc2/C1=N\\OCCOC1OCC(O)C(O)C1O (centres undefined)"
assay_endpoint = "GI50"
result = "> 100 µM (inactive)"

[[record]]
compound = "COc1c(OC)c(OC)c2c(=O)c(OC)c(-c3ccc4c(c3)OCO4)oc2c1OC"
assay_endpoint = "GI50"
result = "86.9 µM (inactive)"

[[record]]
compound = "CCOC(=O)c1cc2cc(CSc3ccccc3)ccc2oc1=O"
assay_endpoint = "GI50"
result = "> 100 µM (inactive)"

[[record]]
compound = "CC(=O)N[C@H]1CCCC[C@@H]1OC(C)=O"
assay_endpoint = "GI50"
result = "> 100 µM (inactive)"


* * *

- Tested on: SF-295
- Experiment: NCI tumour cell line growth inhibition, 48 h
The source made the active and inactive calls. Cut-off read from the data, not from the text of the source: active = GI50 up to about 1.1 µM and inactive = higher.
Each entry below lists one item and its recorded GI50 value.
Assay endpoint: GI50

[[record]]
compound = "O=C1CC2CC3OC3[C@H]3c4cc5c(cc4C(=O)N1C23)OCO5 (stereo partly drawn)"
test_system = "SF-295"
assay_endpoint = "GI50"
result = "> 100 µM (inactive)"

[[record]]
compound = "Cc1ccccc1NC(=O)CC1C(=O)Nc2ccccc2[S+]1[O-] (stereo not drawn)"
test_system = "SF-295"
assay_endpoint = "GI50"
result = "> 100 µM (inactive)"

[[record]]
compound = "CC(C)(C)CC(C)(C)c1cc2c(O)c(c1)Cc1cc(C(C)(C)CC(C)(C)C)cc(c1O)Cc1cc(C(C)(C)CC(C)(C)C)cc(c1O)Cc1cc(C(C)(C)CC(C)(C)C)cc(c1O)C2"
test_system = "SF-295"
assay_endpoint = "GI50"
result = "> 100 µM (inactive)"

[[record]]
compound = "Cc1nc2c(C)c3c([nH]c4ccc(Cl)cc43)c(C)c2c(O)c1C"
test_system = "SF-295"
assay_endpoint = "GI50"
result = "5.89 µM (inactive)"

[[record]]
compound = "CC(C)=CCC[C@@H](C)C1=C(O)C(=O)C(C)=C(N)C1=O"
test_system = "SF-295"
assay_endpoint = "GI50"
result = "12.9 µM (inactive)"

[[record]]
compound = "NNC(=S)N/N=C/C(Cl)=C(\\Cl)C(=O)O"
test_system = "SF-295"
assay_endpoint = "GI50"
result = "> 100 µM (inactive)"

[[record]]
compound = "Cc1ccc(/N=N/N(C)C(C)C(O)Cc2ccccc2)cc1 (stereo not drawn)"
test_system = "SF-295"
assay_endpoint = "GI50"
result = "38.3 µM (inactive)"

[[record]]
compound = "CC(=O)OCC(=O)[C@@]12OC(C)(C)O[C@@H]1C[C@H]1[C@@H]3CC(C=O)=C4C=C(OCCCl)CC[C@]4(C)[C@@]3(F)[C@@H](O)C[C@@]12C [FORMOCORTAL]"
test_system = "SF-295"
assay_endpoint = "GI50"
result = "5.42 µM (inactive)"

